# Tested on: HMC1.2 cells
Could you mark each record Yes if its GI50 falls strictly under 5 µM, and No if it equals or exceeds it?

The examples below pair each entry with its known result.
> print(dat)
                                   compound  classification
1  Cc1ccc(NC(=O)c2ccc(CN3CCN(CCO)CC3)c(C(F)(F)F)c2)cc1-c1cnc2sc(N)nc2c1              No
2  Cc1ccc(NC(=O)c2ccc(CN3CCN(C)CC3)c(C(F)(F)F)c2)cc1-c1cnc2sc(NC(=O)C3CCCCC3)nc2c1             Yes
3  Cc1ccc(NC(=O)c2cccc(C(F)(F)F)c2)cc1-c1cnc2sc(N)nc2c1              No
4  CC(=O)Nc1nc2cc(-c3cc(NC(=O)c4ccc(N5CCOCC5)c(C(F)(F)F)c4)ccc3C)cnc2s1              No

Is the reported GI50 for Cc1ccc(NC(=O)c2ccc(N3CCN(C)CC3)c(C(F)(F)F)c2)cc1-c1cnc2sc(N)nc2c1 strictly below 5 µM? Yes

Is the reported GI50 for Cc1ccc(NC(=O)Cc2cccc(C(F)(F)F)c2)cc1-c1cnc2sc(N)nc2c1 strictly below 5 µM? No

Is the reported GI50 for Cc1ccc(NC(=O)c2ccc(CN3CCNCC3)c(C(F)(F)F)c2)cc1-c1cnc2sc(N)nc2c1 strictly below 5 µM? Yes

Is the reported GI50 for CCN(CC)CCNC(=O)c1c(C)[nH]c(/C=C2\C(=O)Nc3ccc(F)cc32)c1C [sunitinib, reference compound] strictly below 5 µM? Yes

Is the reported GI50 for Cc1ccc(NC(=O)c2ccc(CN3CCCC(N(C)C)C3)c(C(F)(F)F)c2)cc1-c1cnc2sc(N)nc2c1 (stereo not shown) strictly below 5 µM? No

Is the reported GI50 for Cc1ccc(NC(=O)Nc2cccc(C(F)(F)F)c2)cc1-c1cnc2sc(N)nc2c1 strictly below 5 µM? No

Is the reported GI50 for Cc1ccc(NC(=O)c2ccc(CN3CCS(=O)(=O)CC3)c(C(F)(F)F)c2)cc1-c1cnc2sc(N)nc2c1 strictly below 5 µM? No

FYI, the data here is from paper PMC9817970.
